B1: tRNA (parent)
chain: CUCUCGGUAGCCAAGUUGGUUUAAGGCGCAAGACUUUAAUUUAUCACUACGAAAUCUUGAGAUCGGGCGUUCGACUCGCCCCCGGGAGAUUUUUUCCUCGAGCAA

- Variants of: B1
- protocol.details: nonsense suppression (GFP-seq) (ratio to wild type); higher = more function; SUP4oc tRNA, yeast GFP reporter sort-seq
This sample holds only a part of the variants without activity.
Kindly supply the reported nonsense suppression values for the records listed here.
One number for each entry.

Solved cases below.
A13U C81G: 0.0578
A31U A60C: 0.0348
U22G U63A: 0.939
U58G G66C C80G: 0.0324

For each of the variants below, state nonsense suppression.
1. U2G A13U
2. C5U C75A

A)
1: 0.0638; 2: 0.209

For each of the variants below, state nonsense suppression.
1. U2C C68U A87G
2. A13U G32C C56G C75U
3. A14G A30G
4. U22A A31G
5. C12U U16C
6. U22G A60C

A)
1. 1.13
2. 0.912
3. 0.03
4. 1.05
5. 0.853
6. 0.175

Data provenance is the RNAGym collection of RNA variant scans (doi:10.1101/gad.245936.114).
